System: Liver
Test: Half life in CD-1 mouse liver microsomes
Type: ADME, Microsome

{"MOLECULE": "O=C(Nc1nc(-c2ccccn2)cs1)c1cccc(Cl)c1", "t1/2": "19 min"}
{"MOLECULE": "COc1ccc(C(=O)Nc2nc(-c3ccccn3)cs2)cc1", "t1/2": "16 min"}
{"MOLECULE": "Cc1cccc(C(=O)Nc2nc(-c3ccccn3)cs2)c1", "t1/2": "6.7 min"}
{"MOLECULE": "O=C(Nc1nc(-c2ccccn2)cs1)c1ccc(Br)cc1", "t1/2": "6.8 min"}
{"MOLECULE": "O=C(Nc1nc(-c2ccccn2)cs1)c1cccc(Br)c1", "t1/2": "11 min"}

###

Examples of compounds with documented log10(MIC99) follow.
System: Mycobacterium tuberculosis
Assay: Antitubercular activity against Mycobacterium tuberculosis H37Rv in Middlebrook 7H9 broth with butyrate after 7 to 14 days by broth microdilution method
Format: functional
QUANTITY MEASURED: log10(MIC99) (log10 of the value in µM)

{"MOLECULE": "O=C(Nc1nc(-c2ccccn2)cs1)C1CC1", "log10(MIC99)": 1.10}
{"MOLECULE": "Fc1ccccc1Nc1nc(-c2ccccn2)cs1", "log10(MIC99)": 1.40}
{"MOLECULE": "O=C(Nc1nc(-c2ccccn2)cs1)C1CCCC1", "log10(MIC99)": 0.49}
{"MOLECULE": "Cc1cccc(Nc2nc(-c3ccccn3)cs2)c1", "log10(MIC99)": 1.10}
{"MOLECULE": "O=C(Nc1nc(-c2ccccn2)cs1)c1ccccc1Cl", "log10(MIC99)": -0.72}
{"MOLECULE": "O=C(Nc1nc(-c2ccccn2)cs1)c1cccc(F)c1F", "log10(MIC99)": -0.72}
{"MOLECULE": "O=C(Nc1nc(-c2ccccn2)cs1)c1ccc(F)cc1", "log10(MIC99)": -0.72}
{"MOLECULE": "CCCCCC(=O)Nc1nc(-c2ccccn2)cs1", "log10(MIC99)": 0.49}
{"MOLECULE": "CCCCCCCC(=O)Nc1nc(-c2ccccn2)cs1", "log10(MIC99)": 0.80}

###

Tested on: Mycobacterium tuberculosis
Test: Antitubercular activity against Mycobacterium tuberculosis H37Rv in Middlebrook 7H9 broth with glucose after 7 to 14 days by broth microdilution method
Type: functional
Friendly reminder: MIC99 below 2 µM is MET, at or above is NOT MET.

{"MOLECULE": "O=C(Nc1nc(-c2ccccn2)co1)c1ccccc1", "SYSTEM": "Mycobacterium tuberculosis", "ASSIGNED CLASS": "NOT MET"}
{"MOLECULE": "O=C(Nc1nc(-c2ccccn2)cs1)c1ccccc1", "SYSTEM": "Mycobacterium tuberculosis", "ASSIGNED CLASS": "MET"}
{"MOLECULE": "O=C(Nc1nc(-c2ccccn2)cs1)c1cccs1", "SYSTEM": "Mycobacterium tuberculosis", "ASSIGNED CLASS": "MET"}
{"MOLECULE": "O=C(Nc1nc(-c2ccccn2)cs1)c1c(F)cccc1Cl", "SYSTEM": "Mycobacterium tuberculosis", "ASSIGNED CLASS": "MET"}
{"MOLECULE": "O=C(Nc1nc(-c2cscn2)cs1)c1ccccc1", "SYSTEM": "Mycobacterium tuberculosis", "ASSIGNED CLASS": "NOT MET"}
{"MOLECULE": "FC(F)(F)c1ccccc1Nc1nc(-c2ccccn2)cs1", "SYSTEM": "Mycobacterium tuberculosis", "ASSIGNED CLASS": "NOT MET"}
{"MOLECULE": "O=C(Nc1nc(-c2ccccc2)cs1)c1ccccc1", "SYSTEM": "Mycobacterium tuberculosis", "ASSIGNED CLASS": "NOT MET"}
{"MOLECULE": "O=C(Nc1nc(-c2ccccn2)cs1)c1ccc(Br)cc1", "SYSTEM": "Mycobacterium tuberculosis", "ASSIGNED CLASS": "MET"}
{"MOLECULE": "COc1ccc(OC)c(Nc2nc(-c3ccccn3)cs2)c1", "SYSTEM": "Mycobacterium tuberculosis", "ASSIGNED CLASS": "NOT MET"}
{"MOLECULE": "O=C(Nc1nc(-c2ccccn2)cs1)c1cc(F)cc(F)c1", "SYSTEM": "Mycobacterium tuberculosis", "ASSIGNED CLASS": "MET"}
{"MOLECULE": "O=C(Nc1nc(-c2ccccn2)cs1)c1cccc([N+](=O)[O-])c1", "SYSTEM": "Mycobacterium tuberculosis", "ASSIGNED CLASS": "MET"}
{"MOLECULE": "c1ccc(Nc2nc(-c3ccccn3)cs2)nc1", "SYSTEM": "Mycobacterium tuberculosis", "ASSIGNED CLASS": "MET"}

Origin of values: ChEMBL document CHEMBL2440116
